System: RARa homodimer (NR concentration 270 nM)
experimental.protocol: PBM binding z-score (relative to random genomic background probes); higher = stronger binding; sequences stand for … in GC…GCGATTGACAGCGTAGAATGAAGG
Each entry gets Condition not met if its PBM binding z-score stays under 0.2, and Condition met if its PBM binding z-score is 0.2 or above.

Recorded results for 3 sequences are shown here.
ATATGCAGGTTAAGGGTCATTCAGGTTGGTTCGC; Condition met
CGAACTAGGTCATGGACAGTGAATCTCCGCACGC; Condition met
CCTAGCAGGCCAGGATCACTCAAGCATTTCGCTT; Condition not met

[Q] Can CCTAGTAGGTCAAGGTCACACACGCTATAGGTAC be said to have PBM binding z-score at or above 0.2?
[A] Condition met

[Q] Identify whether the reported PBM binding z-score of the following sequence is 0.2 or greater: TCATATAGGTAAAAGGTGACAGTCGGTGTGGTAA
[A] Condition met

[Q] Reported PBM binding z-score reaches at least 0.2 for AATACAGGCTCACTAGGCCAGAGTAGGTACGAAT ?
[A] Condition not met

====

In this section, each of the sequences is paired with its reported PBM binding z-score.
Test system: VDR homodimer (NR concentration 270 nM)
experimental.protocol: PBM binding z-score (relative to random genomic background probes); higher = stronger binding; sequences stand for … in GC…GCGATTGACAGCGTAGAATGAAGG
// response body must contain only the number

Here's what some known entries look like.
CGAACGAGGGCATGCGTTGATAGCAAATGCCGAT; 1.21
TCATATAGGTAAACAGGTGAATGTCCGTAAGTTA; 0.283
TGAATGAGGTTCTAAGATCAGGGAACGTTGCAAA; -0.351
GCTTGTAGATCAAGGTTAAGTAAGACTAAGCTAA; -0.509
CGTCCAAGGTCAATGCTAGGTCAGTGTAAGCATT; 3.52

[Q] # PBM binding z-score lookup, item TAGCCTAGGTCAGAACGGGCCAGTATACGCTATA
[A] -0.307

[Q] If you can, please state the reported PBM binding z-score value of TCTTATAGGTAAAAGGTGAAAGTCGGTGTGGTAA .
[A] 0.326

[Q] What value of measured PBM binding z-score is listed for CGAACTAGGTCATCCAGGACAGTCAATACATTGA ?
[A] 2.52

[Q] What value of PBM binding z-score has been recorded for this entry: CCAATTAGTTGACCATAAGGGCAACCGAAGCTCG
[A] 0.962

====

Tested on: LXRb:RXRa (NR concentration 270 nM, RXRa partner concentration 90 nM)
experimental.protocol: PBM binding z-score (relative to random genomic background probes); higher = stronger binding; sequences stand for … in GC…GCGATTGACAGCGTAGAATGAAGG
The sequences listed here are annotated with their PBM binding z-score.

Solved cases below.
ACTAGCAGGCCAAGTCTGGGTCACTCAAACAAAG; 0.796
CCTTACGGGTGACTGACAGGTTATAGCATTTGGA; 0.347
GGCACGAGGGCATTCGAGTTGATAGCATGGCGAT; 0.139
GCTTACGTGTCAAAGGTTATAGCATGAATAGAAT; 2.94
TCTTGTGGATCAAAGGTTAAGAAAGCCGAAGCCT; 2.08
TCGAGTGGGTTACCAATGGGGCATTCAGCTTTCT; 0.75
ATCCCTAGGTAAAGATAGTTCAGTGAATGCAAAT; 0.881
TCTTGTAGATCAATAGAGATTAAGAAAGTGCGCT; -0.171

[Q] Which PBM binding z-score value belongs to CCTCGGAGGACAACAGCAGGTCAGAGCTGCCAGA ?
[A] 0.176

[Q] What does the record list as PBM binding z-score for ACTATTAGTTGACTTAGGGCAACGGATACGACGC ?
[A] -0.137

[Q] What value of measured PBM binding z-score is listed for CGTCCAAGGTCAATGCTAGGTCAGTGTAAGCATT ?
[A] 4.11

[Q] Fill in: PBM binding z-score of GCTCGGAGGACAATGTCAGAGCTTTGTCCGTAGA is ___
[A] -0.519

[Q] Fill in the blank: the reported PBM binding z-score of ATCTCTAGGTAATAGTTCAGTGAATCCCGAGGAT is ____.
[A] 0.482

[Q] I'd like to know its PBM binding z-score. The sequence in question is GCGACTGGGGGAAAGCAGGTTACCATAAGGTTGG
[A] 1.5

[Q] Value lookup for PBM binding z-score; key = AGAACGAGGGCGATGAGTTGATAGCACGGGTGGC
[A] -0.815

[Q] Which PBM binding z-score is listed for TCTGCTAGGTCAAGGATGGTCAGCTAATCTGCTA ?
[A] 1.48

[Q] Requested read-out: PBM binding z-score. Entry: TCTCGGAGGACACGAACGGTCAGAGCTCGACATC
[A] -0.277

[Q] Please give the measured PBM binding z-score for this sequence: GATACAGGGTCAGCTAGAGGCCAGAGTTTGGAAA
[A] 2.49

[Q] Query: PBM binding z-score; subject: CCTATTTGTTGACCATAAGGGCAACCGAAGCTCG
[A] 0.696

[Q] Data request, read-out PBM binding z-score, for GATACAGGGTCAAGGCCAGATTACGCGTATTGAT
[A] 4.07

[Q] So what does the record say about PBM binding z-score for TCTCCGAGGACACGAAGGTCAGAGCTTTCCAGAG ?
[A] 0.919

[Q] // returns reported PBM binding z-score for input TCATACAGGTAAATGCTAGGTGAAAGTCCGATCT
[A] 0.729

[Q] What PBM binding z-score value was documented for this sequence, TCTTGTAGATCAAGCACGTTAAGAAAGCCTGAGT ?
[A] 0.106

[Q] Reported PBM binding z-score for GCTAGCAGGCCATTTTGGTCACTCAATGACGGGC : what is it?
[A] -0.967

[Q] // lookup PBM binding z-score for CGAACTAGGTCATTGACAGGACACTGAATAGTAA
[A] 2.25

[Q] Returns the measured PBM binding z-score for the input sequence. Input: GATACAGGGTCAAGGCCAGAGTCCGCGTATTGAT
[A] 3.58

[Q] # get_value(readout='PBM binding z-score', item= CCGACAGGGGCAAAGGTTACCATACTCAGTACGA )
[A] 2.73

[Q] Return reported PBM binding z-score; argument: CTCGTAAGGTCGGTTGAGGTGAGTATACGGATAA
[A] 0.701

[Q] Which measured PBM binding z-score value corresponds to TATACCGGGTCAAAGGCCAGAGTACGAATGTCGA ?
[A] 3.95
